# Tested on: NCI-H23
# experimentDescription: NCI tumour cell line growth inhibition, 48 h
Active and inactive are the calls of the source. No stated cut-off is given here; in the data, active = GI50 up to about 1.1 µM and inactive = higher.
Choose the fitting class; nothing outside active, inactive is accepted.

Example cases with answers are listed next.
O=C1C=C2C(=CCOC2O)O1 (stereo not drawn) [PATULIN] | inactive
Cn1c(=O)c2nc3sc4c(n3c2n(C)c1=O)C(=O)c1ccccc1C4=O | inactive
CC(C)CC(NC(=O)OC(C)(C)C)C(=O)Nc1ccc(Nc2nc(F)nc(-c3c4ccccc4cn3C)n2)cc1 (stereo not drawn) | inactive
Cc1ccc(C2(O)c3ccccc3C(=O)N(C)C2(O)c2ccc(C)cc2)cc1 (stereo not drawn) | inactive

Now examine the next entry.
-- ask Which outcome was entered for the compound COc1cccc(/C=N/C(/N=C/c2cccc(OC)c2O)c2cccc(OC)c2O)c1O in this test?
-- reply inactive

====

# System: RXF 393
# experimentDescription: NCI tumour cell line growth inhibition, 48 h
Calls of active or inactive are those of the source. Cut-off read from the data, not from the text of the source: active = GI50 up to about 1.1 µM and inactive = higher.
Choose the fitting class; nothing outside active, inactive is accepted.

O=C(c1ccco1)N(C(=S)N1CCN(c2ccccc2)CC1)c1ccccc1 | inactive
CN(C)/C=C/c1ccnc2c1C(=O)c1ccccc1C2=O | inactive
COC(=O)C(C(=O)C(=O)Nc1nc2ccc([N+](=O)[O-])cc2s1)c1nc2ccc(Cl)cc2nc1O (configuration not stated) | inactive

-- ask Which outcome was entered for the molecule C[C@]12CC[C@H](O)C=C1CC[C@@H]1[C@@H]2CC[C@]2(C)C(=N/O)/C(=C/c3ccncc3)C[C@@H]12 in this test?
-- reply inactive

-- ask Which outcome was entered for the molecule O=C1O[C@H]2C3C4CCC(C4[C@@H]2I)[C@H]13 (some centres not stated) in this test?
-- reply inactive

-- ask Which outcome was entered for the molecule COc1ccc(CCc2ccc(O)c(C(=O)O)c2)cc1OC in this test?
-- reply inactive

-- ask Which outcome was entered for the molecule CCOC(=O)C(=O)Nc1ccc([N+](=O)[O-])cc1C#N in this test?
-- reply inactive

-- ask Which outcome was entered for the molecule O=C1c2ccccc2C(=O)c2c(NC3CCCCC3)ccc(Nc3ccc(S(=O)(=O)O)cc3)c21 in this test?
-- reply inactive

====

# Test system: NCI-H522
# experimentDescription: NCI tumour cell line growth inhibition, 48 h
Active and inactive are the calls of the source. Rule as the data show it: active = GI50 up to about 1.1 µM and inactive = higher.
Choose the fitting class; nothing outside active, inactive is accepted.

Example cases with answers are listed next.
CC1COS(=O)O1 (stereo not given) | inactive
CN(C)CC(CO)(CN(C)C)CN(C)C | inactive
CN(C)/C=C/c1ccnc2c1C(=O)c1ccccc1C2=O | inactive
COc1ccc(-n2c(C)nc3ccc(NC4OC(COC(C)=O)C(OC(C)=O)C(OC(C)=O)C4OC(C)=O)cc3c2=O)cc1 (stereo not given) | inactive
CCOc1cc(C2SCC(=O)N2c2ccc3c(c2)Oc2c(Cl)c4c(c(Cl)c2=N3)Oc2cc(N3C(=O)CSC3c3ccc(O)c(OCC)c3)ccc2N=4)ccc1O (stereo not given) | inactive
CC(=O)c1[nH]c(Nc2ccc(C)cc2)c(C(=S)Nc2ccccc2)c1N | inactive
N/N=C(\Cc1ccccc1)NN=C(N)N | inactive
COC(=O)C(C(=O)C(=O)Nc1ccc(C)cc1C)c1nc2ccc([N+](=O)[O-])cc2nc1O (stereo not given) | inactive
CN(C)N1C(=O)C(=O)N(c2cccc3ccccc23)C1=O | inactive

-- ask Which outcome was entered for the molecule O=C1C=C2C(=CCOC2O)O1 (stereo not given) in this test?
-- reply active
